experiment: Apparent clearance in mouse at 10 mg/kg, po; type: ADME, organism-based; conditions: in vivo, read-out: CL(app) (converted)
MEASURED ENDPOINT: CL/F (mL/min/kg)
Give bare numbers, in mL/min/kg.

# input Tell me the measured CL/F of "CNC(=O)c1cncc(-c2cnc(Cl)c(NS(=O)(=O)c3ccccc3)c2)c1" , please.
# output 65

* * *

Please provide measured EC50 for the entries that follow.
tested on: Plasmodium falciparum; experiment: Antimalarial activity against artemisinin and piperaquine-phosphate resistant Plasmodium falciparum 6320 infected in human O+ erythrocytes incubated for 72 hrs by SYBR Green 1 dye based fluorescence assay; format: functional, organism-based; details: Plasmodium falciparum, 6320, Erythrocyte
Numbers only, in nM.

Items follow; give EC50 for each.
1. CNC(=O)c1cncc(-c2cnc(Cl)c(NS(=O)(=O)c3ccccc3)c2)c1
2. CNC(=O)c1ccc(-c2cnc3cnc(C(=O)N(C)c4ccc(Cl)cc4)cn23)cc1

# output
1. 24.7
2. 33.6

* * *

Please provide measured IC50 for the entries that follow.
Molecular target: Phosphatidylinositol 4,5-bisphosphate 3-kinase catalytic subunit delta isoform (Homo sapiens)
Sequence (O00329 whole entry): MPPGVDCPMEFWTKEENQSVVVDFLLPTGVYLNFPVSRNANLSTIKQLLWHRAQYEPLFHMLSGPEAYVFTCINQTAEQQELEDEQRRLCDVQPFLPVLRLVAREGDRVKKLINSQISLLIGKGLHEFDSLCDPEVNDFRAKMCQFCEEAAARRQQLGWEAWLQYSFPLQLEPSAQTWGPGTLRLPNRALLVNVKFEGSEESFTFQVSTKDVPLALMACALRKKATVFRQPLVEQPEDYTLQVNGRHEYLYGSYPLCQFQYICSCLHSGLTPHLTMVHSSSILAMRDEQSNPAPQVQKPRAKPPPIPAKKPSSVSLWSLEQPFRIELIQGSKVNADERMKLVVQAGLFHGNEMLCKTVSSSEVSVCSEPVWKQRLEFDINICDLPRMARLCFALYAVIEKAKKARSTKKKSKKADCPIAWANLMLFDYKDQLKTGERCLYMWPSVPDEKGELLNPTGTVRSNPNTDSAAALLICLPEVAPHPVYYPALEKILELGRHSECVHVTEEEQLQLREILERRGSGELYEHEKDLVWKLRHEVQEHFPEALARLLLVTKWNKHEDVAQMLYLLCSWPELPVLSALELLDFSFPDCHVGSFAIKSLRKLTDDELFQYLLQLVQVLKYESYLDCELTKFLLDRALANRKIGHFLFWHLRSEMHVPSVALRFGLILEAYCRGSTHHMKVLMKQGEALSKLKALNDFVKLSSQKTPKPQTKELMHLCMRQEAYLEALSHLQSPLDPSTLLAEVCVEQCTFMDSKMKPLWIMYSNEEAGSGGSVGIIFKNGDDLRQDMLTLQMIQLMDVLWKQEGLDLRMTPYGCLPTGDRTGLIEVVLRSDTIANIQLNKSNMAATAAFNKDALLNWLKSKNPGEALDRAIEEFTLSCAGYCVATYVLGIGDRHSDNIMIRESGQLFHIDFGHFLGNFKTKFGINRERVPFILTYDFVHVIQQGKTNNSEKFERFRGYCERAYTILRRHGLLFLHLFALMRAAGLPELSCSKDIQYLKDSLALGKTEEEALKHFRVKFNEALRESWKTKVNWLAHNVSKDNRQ
Assay: Inhibition of human PI3Kdelta by ADP-Glo kinase assay
One number for each entry, in nM.

STRUCTURE NOTATION	IC50 / nM
CNC(=O)c1ccc(-c2cnc3cnc(C(=O)N(C)c4ccc(Cl)cc4)cn23)cc1	3100

Alright, here's another compound for you.
# input Tell me the measured IC50 of "CNC(=O)c1cncc(-c2cnc(Cl)c(NS(=O)(=O)c3ccccc3)c2)c1" , please.
# output 104

* * *

assay: AUC(0 to t) in Sprague-Dawley rat at 1 mg/kg, iv; format: ADME, organism-based; set-up: dose 1 mg/kg; conditions: in vivo
MEASURED ENDPOINT: AUC(0-t) (ng·h/mL)
One number for each entry, in ng·h/mL.

# input Tell me the measured AUC(0-t) of "CNC(=O)c1cncc(-c2cnc(Cl)c(NS(=O)(=O)c3ccccc3)c2)c1" , please.
# output 2160

* * *

Please provide measured pEC50 for the entries that follow.
test system: Plasmodium falciparum; assay: Antimalarial activity against sulphadoxine-resistant blood stage Plasmodium falciparum 3D7 infected in human O+ erythrocytes incubated for 72 hrs by SYBR Green 1 dye based fluorescence assay; assay type: functional, organism-based; details: 3D7, Erythrocyte
Give bare numbers, as −log10 of the molar value.

The examples below pair each entry with its known result.
STRUCTURE NOTATION	MEASURED ENDPOINT	EXPERIMENTAL RESULT
CCNC(=O)c1cncc(-c2cnc(Cl)c(NS(=O)(=O)c3ccccc3)c2)c1	pEC50	6.92
O=S(=O)(Nc1cc(-c2cnc3[nH]ccc3c2)cnc1Cl)c1ccccc1	pEC50	5.40

Alright, here's another compound for you.
# input Tell me the measured pEC50 of "O=C(NCc1ccccc1)c1cncc(-c2cnc(Cl)c(NS(=O)(=O)c3ccccc3)c2)c1" , please.
# output 5.45

* * *

experiment: Apparent volume of distribution in Sprague-Dawley rat at 1 mg/kg, iv; assay type: ADME, organism-based; conditions: in vivo, read-out: Vz
MEASURED ENDPOINT: Vd (L/kg)
Answers are plain numbers, in L/kg.

# input Tell me the measured Vd of "CNC(=O)c1cncc(-c2cnc(Cl)c(NS(=O)(=O)c3ccccc3)c2)c1" , please.
# output 2.6

* * *

assay: AUC(0 to infinity) in mouse at 10 mg/kg, po; format: ADME, organism-based; parameters: route oral, time infinity, dose 10 mg/kg; conditions: in vivo
MEASURED ENDPOINT: AUC(0-inf) (ng·h/mL)
One number for each entry, in ng·h/mL.

# input Tell me the measured AUC(0-inf) of "CNC(=O)c1cncc(-c2cnc(Cl)c(NS(=O)(=O)c3ccccc3)c2)c1" , please.
# output 2380

* * *

test: Tmax in Sprague-Dawley rat at 1 mg/kg, iv; format: ADME, organism-based; details: in vivo
MEASURED ENDPOINT: Tmax (min)
Give bare numbers, in min.

# input Tell me the measured Tmax of "CNC(=O)c1cncc(-c2cnc(Cl)c(NS(=O)(=O)c3ccccc3)c2)c1" , please.
# output 1.2

* * *

Please provide measured pIC50 for the entries that follow.
experiment: Inhibition of human PIK3C2alpha by ADP-Glo kinase assay
pIC50: −log10 of the molar value.

STRUCTURE NOTATION	EXPERIMENTAL RESULT
CNC(=O)c1ccc(-c2cnc3cnc(C(=O)N(C)c4ccc(Cl)cc4)cn23)cc1	< 5.00

# input Tell me the measured pIC50 of "CNC(=O)c1cncc(-c2cnc(Cl)c(NS(=O)(=O)c3ccccc3)c2)c1" , please.
# output < 5.00

* * *

test system: Plasmodium falciparum; experiment: Antimalarial activity against mefloquine/chloroquine/pyrimethamine resistant Plasmodium falciparum Dd2 infected in human O+ erythrocytes incubated for 72 hrs by SYBR Green 1 dye based fluorescence assay; assay type: functional, organism-based; settings: Dd2, Erythrocyte
Please provide measured pEC50 for the entries that follow.
Answers are plain numbers, as −log10 of the molar value.

STRUCTURE NOTATION	MEASURED ENDPOINT	EXPERIMENTAL RESULT
CNC(=O)c1cncc(-c2cnc(Cl)c(NS(=O)(=O)c3ccccc3)c2)c1	pEC50	7.52

# input Tell me the measured pEC50 of "CNC(=O)c1ccc(-c2cnc3cnc(C(=O)N(C)c4ccc(Cl)cc4)cn23)cc1" , please.
# output 7.33

* * *

assay: Oral bioavailability in Sprague-Dawley rat at 10 mg/kg; assay type: ADME, organism-based; details: in vivo
MEASURED ENDPOINT: bioavailability

# input Tell me the measured bioavailability of "CNC(=O)c1cncc(-c2cnc(Cl)c(NS(=O)(=O)c3ccccc3)c2)c1" , please.
# output 89%

* * *

test: Cmax in Sprague-Dawley rat at 1 mg/kg, iv; type: ADME, organism-based; design: route intravenous, dose 1 mg/kg; conditions: in vivo
MEASURED ENDPOINT: Cmax
I'd appreciate it if you wrote the number followed by its unit.

# input Tell me the measured Cmax of "CNC(=O)c1cncc(-c2cnc(Cl)c(NS(=O)(=O)c3ccccc3)c2)c1" , please.
# output 5010 ng/mL

* * *

assay: AUC(0 to infinity) in Sprague-Dawley rat at 10 mg/kg, po; assay type: ADME, organism-based; design: time infinity, route oral, dose 10 mg/kg; settings: in vivo
MEASURED ENDPOINT: AUC(0-inf) (ng·h/mL)
Numbers only, in ng·h/mL.

# input Tell me the measured AUC(0-inf) of "CNC(=O)c1cncc(-c2cnc(Cl)c(NS(=O)(=O)c3ccccc3)c2)c1" , please.
# output 19300

* * *

Please provide measured pIC50 for the entries that follow.
assay: Inhibition of recombinant His-tagged Plasmodium falciparum 3D7 PI4K expressed in baculovirus infected Sf9 cells using PI:PS as substrate incubated for 1 hr in presence of ATP by ADP-Glo kinase assay
One number for each entry, as −log10 of the molar value.

The examples below pair each entry with its known result.
STRUCTURE NOTATION	pIC50
CNC(=O)c1cncc(-c2cnc(Cl)c(NS(=O)(=O)c3ccc(-c4ccccc4)cc3)c2)c1	8.06
O=S(=O)(Nc1cc(-c2cnc3[nH]ncc3c2)cnc1Cl)c1ccccc1	8.25
CCNC(=O)c1cncc(-c2cnc(Cl)c(NS(=O)(=O)c3ccccc3)c2)c1	8.64

Items follow; give pIC50 for each.
1. CNC(=O)c1cncc(-c2cnc(Cl)c(NS(=O)(=O)c3ccc(C)cc3)c2)c1
2. CC(=O)n1ccc2cc(-c3cnc(Cl)c(NS(=O)(=O)c4ccccc4)c3)cnc21
3. CNC(=O)c1cncc(-c2cnc(Cl)c(NS(=O)(=O)c3ccc(F)cc3F)c2)c1
4. CNC(=O)c1cncc(-c2cnc(Cl)c(NS(=O)(=O)c3ccc(C)cc3C)c2)c1
5. O=C(NCc1ccccc1)c1cncc(-c2cnc(Cl)c(NS(=O)(=O)c3ccccc3)c2)c1
6. CNC(=O)c1cncc(-c2cnc(Cl)c(NS(=O)(=O)c3cccc(C(F)(F)F)c3)c2)c1
7. O=C(Nc1ccccc1)c1cncc(-c2cnc(Cl)c(NS(=O)(=O)c3ccccc3)c2)c1

# output
1: 8.92; 2: 8.09; 3: 9.40; 4: 8.66; 5: 8.07; 6: 8.60; 7: 6.84

Items follow; give pIC50 for each.
1. O=S(=O)(Nc1cc(-c2cnc3[nH]ccc3c2)cnc1Cl)c1ccccc1
2. NCCNC(=O)c1cncc(-c2cnc(Cl)c(NS(=O)(=O)c3ccccc3)c2)c1
3. CNC(=O)c1cncc(-c2cnc(Cl)c(NS(=O)(=O)c3ccc4c(c3)CCO4)c2)c1
4. CNC(=O)c1cncc(-c2cnc(Cl)c(NS(=O)(=O)c3ccc(Cl)cc3)c2)c1

# output
1. 8.11
2. 7.86
3. 8.35
4. 8.80

Items follow; give pIC50 for each.
1. CNC(=O)c1ccc(-c2cnc3cnc(C(=O)N(C)c4ccc(Cl)cc4)cn23)cc1
2. CCS(=O)(=O)Nc1cc(-c2cncc(C(=O)NC)c2)cnc1Cl
3. CNC(=O)c1cncc(-c2cnc(Cl)c(NS(=O)(=O)c3ccc(Cl)cc3Cl)c2)c1
4. Cn1cc(-c2cnc(Cl)c(NS(=O)(=O)c3ccccc3)c2)cn1
5. O=S(=O)(Nc1cc(-c2cccnc2)cnc1Cl)c1ccccc1
6. CCCS(=O)(=O)Nc1cc(-c2cncc(C(=O)NC)c2)cnc1Cl
7. CNC(=O)c1cncc(-c2cnc(Cl)c(NS(=O)(=O)c3ccccc3)c2)c1
8. CNC(=O)c1cncc(-c2cnc(Cl)c(NS(=O)(=O)c3ccccc3C(F)(F)F)c2)c1

# output
8.80
7.28
8.92
8.00
7.90
7.88
9.05
9.30

# input Tell me the measured pIC50 of "CNC(=O)c1cncc(-c2cnc(Cl)c(NS(=O)(=O)c3cccc(-c4ccccc4)c3)c2)c1" , please.
# output 8.12
